Target: Muscarinic acetylcholine receptor M1 (Rattus norvegicus, UniProt P08482)
Experiment: Binding affinity for muscarinic acetylcholine receptor M1 using [3H]pirenzepine (Pz) radioligand in rat hippocampus membranes.
Type: cell membranes
Binarize IC50 at 40 nM; below is Fulfilled, at or above is Not fulfilled.

hey, is IC50 for CCCCCSc1nsnc1OC1CN2CCC1CC2 (stereo in doubt; 18f) lower than 40 nM or not?
Fulfilled

hey, is IC50 for CCCSc1nsnc1O[C@@H]1CC2CCN(C2)C1 (stereo in doubt; 27) lower than 40 nM or not?
Fulfilled

hey, is IC50 for COc1nsnc1OC1CN2CCC1CC2 (stereo not drawn) lower than 40 nM or not?
Not fulfilled

hey, is IC50 for CCSCc1nsnc1OC1CN2CCC1CC2 (stereo not drawn) lower than 40 nM or not?
Not fulfilled

hey, is IC50 for CCCCOc1nsnc1OC1CN2CCC1CC2 (stereo not drawn) lower than 40 nM or not?
Not fulfilled

hey, is IC50 for CCCCCOc1nsnc1OC1CN2CCC1CC2 (stereo not drawn) lower than 40 nM or not?
Not fulfilled

hey, is IC50 for CCCCOc1nccnc1OC1CN2CCC1CC2 (stereo not drawn) lower than 40 nM or not?
Fulfilled

hey, is IC50 for CCCOc1nsnc1OC1CN2CCC1CC2 (stereo not drawn) lower than 40 nM or not?
Not fulfilled

hey, is IC50 for "CCCCOc1nsnc1OCCN(C)C" lower than 40 nM or not?
Not fulfilled

hey, is IC50 for CCCSc1nsnc1OC1CN2CCC1C2 (stereo in doubt; 32) lower than 40 nM or not?
Not fulfilled

hey, is IC50 for CCSc1nsnc1OC1CN2CCC1CC2 (stereo not drawn) lower than 40 nM or not?
Fulfilled

hey, is IC50 for CCCCCCOc1nsnc1OC1CN2CCC1CC2 (stereo not drawn) lower than 40 nM or not?
Not fulfilled

hey, is IC50 for CCCSc1nsnc1O[C@@H]1CC2CCN(C2)C1 (stereo in doubt; 33) lower than 40 nM or not?
Fulfilled

hey, is IC50 for CCCCCCSc1nsnc1OC1CN2CCC1CC2 (stereo not drawn) lower than 40 nM or not?
Fulfilled

hey, is IC50 for Clc1nsnc1OC1CN2CCC1CC2 (stereo not drawn) lower than 40 nM or not?
Not fulfilled

hey, is IC50 for CCCSc1nsnc1OC1CN2CCC1C2 (stereo in doubt; 26) lower than 40 nM or not?
Fulfilled

hey, is IC50 for CSc1nsnc1OC1CN2CCC1CC2 (stereo not drawn) lower than 40 nM or not?
Not fulfilled

###

Biological target: Muscarinic acetylcholine receptor M1 (Rattus norvegicus, UniProt P08482)
Assay: Binding affinity for muscarinic acetylcholine receptor M1 using [3H]oxotremorine-M (Oxo-M) radioligand in rat hippocampus membranes
Format: cell membranes, Membrane
Answer each item with its documented pIC50.
pIC50 is a log-scale quantity: -log10 of the concentration expressed in molar.

Given item CCSc1nsnc1OC1CN2CCC1CC2 (configuration not stated) , the value recorded as its pIC50 is 8.19

Given item "CCCCOc1nsnc1OCC[N+](C)(C)C" , the value recorded as its pIC50 is 7.44

Given item CCCCOc1nsnc1OC1CCNC1 (configuration not stated) , the value recorded as its pIC50 is 6.80

Given item CCSCc1nsnc1OC1CN2CCC1CC2 (configuration not stated) , the value recorded as its pIC50 is 7.18

Given item "CCCCOc1nsnc1OCCN(C)C" , the value recorded as its pIC50 is 7.17

Given item CCCSc1nsnc1OC1CN2CCC1C2 (stereo in doubt; 32) , the value recorded as its pIC50 is 8.26

Given item CCCCOc1nsnc1OC1CN2CCC1CC2 (configuration not stated) , the value recorded as its pIC50 is 7.97

Given item CCCCCCSc1nsnc1OC1CN2CCC1CC2 (configuration not stated) , the value recorded as its pIC50 is 8.12

Given item CCCSc1nsnc1C1CN2CCC1C2 (stereo in doubt; 41) , the value recorded as its pIC50 is 9.22

Given item CCCSc1nsnc1OC1CN2CCCC1C2 (stereo in doubt; 28) , the value recorded as its pIC50 is 9.42

Given item COc1nsnc1OC1CN2CCC1CC2 (configuration not stated) , the value recorded as its pIC50 is 6.70

Given item CCCCCSc1nsnc1OC1CN2CCC1CC2 (stereo in doubt; 18e) , the value recorded as its pIC50 is 8.36

Given item CCCCOc1nsnc1OC1CCN(C)C1 (configuration not stated) , the value recorded as its pIC50 is 7.38

Given item CCCSc1nsnc1OC1CN2CCC1C2 (stereo in doubt; 26) , the value recorded as its pIC50 is 9.12

Given item CCCSc1nsnc1O[C@@H]1CC2CCN(C2)C1 (stereo in doubt; 27) , the value recorded as its pIC50 is 8.55

Given item CCCCCSc1nsnc1OC1CN2CCC1CC2 (stereo in doubt; 18f) , the value recorded as its pIC50 is 8.19

Given item CCCSc1nsnc1C1CN2CCC1C2 (stereo in doubt; 40) , the value recorded as its pIC50 is 8.24

Given item CCCSc1nsnc1OC1CN2CCC1CC2 (configuration not stated) , the value recorded as its pIC50 is 8.54

Given item CSc1nsnc1OC1CN2CCC1CC2 (configuration not stated) , the value recorded as its pIC50 is 7.76

Given item CCCCCCOc1nsnc1OC1CN2CCC1CC2 (configuration not stated) , the value recorded as its pIC50 is 7.93

Given item CCCCSc1nsnc1OC1CN2CCC1CC2 (configuration not stated) , the value recorded as its pIC50 is 8.60

Given item CCCSc1nsnc1OC12CCCN(CC1)C2 (configuration not stated) , the value recorded as its pIC50 is 8.28

Given item c1nsnc1OC1CN2CCC1CC2 (configuration not stated) , the value recorded as its pIC50 is 6.27

Given item Clc1nsnc1OC1CN2CCC1CC2 (configuration not stated) , the value recorded as its pIC50 is 7.01

Given item CCCSc1nsnc1OC1CN2CCCC1C2 (stereo in doubt; 34) , the value recorded as its pIC50 is 6.75

Given item CCCCCOc1nsnc1OC1CN2CCC1CC2 (configuration not stated) , the value recorded as its pIC50 is 7.90

Given item "CCCCOc1nsnc1OC1CNC1" , the value recorded as its pIC50 is 6.98

###

Target: UniProt P08482
Sequence (P08482 whole entry): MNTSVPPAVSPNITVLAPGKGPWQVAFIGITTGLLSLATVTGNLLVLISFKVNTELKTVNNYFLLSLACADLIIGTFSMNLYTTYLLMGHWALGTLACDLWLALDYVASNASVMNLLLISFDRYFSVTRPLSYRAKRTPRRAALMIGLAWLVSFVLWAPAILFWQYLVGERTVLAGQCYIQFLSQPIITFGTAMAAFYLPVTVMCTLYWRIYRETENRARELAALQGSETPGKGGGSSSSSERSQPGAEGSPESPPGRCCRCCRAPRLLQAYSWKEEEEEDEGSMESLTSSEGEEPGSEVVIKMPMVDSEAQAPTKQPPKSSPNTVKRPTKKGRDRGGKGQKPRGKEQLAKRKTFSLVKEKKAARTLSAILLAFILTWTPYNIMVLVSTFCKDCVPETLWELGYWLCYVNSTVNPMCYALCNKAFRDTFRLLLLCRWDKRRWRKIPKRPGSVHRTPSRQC
Test: Binding affinity for muscarinic acetylcholine receptor M1 using [3H]pirenzepine (Pz) radioligand in rat hippocampus membranes.
Format: cell membranes
Answer each item with its documented pIC50.
pIC50 is a log-scale quantity: -log10 of the concentration expressed in molar.

Given item CCOc1nsnc1OC1CN2CCC1CC2 (stereo not drawn) , the value recorded as its pIC50 is 7.18

Given item CCCCOc1nonc1OC1CN2CCC1CC2 (stereo not drawn) , the value recorded as its pIC50 is 7.04

Given item CCCCOc1nsnc1OC1CCNC1 (stereo not drawn) , the value recorded as its pIC50 is 6.44

Given item CCCCSc1nsnc1OC1CN2CCC1CC2 (stereo not drawn) , the value recorded as its pIC50 is 8.30

Given item CSCCc1nsnc1OC1CN2CCC1CC2 (stereo not drawn) , the value recorded as its pIC50 is 7.18

Given item CCCSc1nsnc1OC1CN2CCC1CC2 (stereo not drawn) , the value recorded as its pIC50 is 7.68

Given item CCCCCSc1nsnc1OC1CN2CCC1CC2 (stereo in doubt; 18e) , the value recorded as its pIC50 is 8.05

Given item CCCSc1nsnc1OC1CN2CCCC1C2 (stereo in doubt; 28) , the value recorded as its pIC50 is 9.26

Given item c1nsnc1OC1CN2CCC1CC2 (stereo not drawn) , the value recorded as its pIC50 is 6.08

Given item CCCSc1nsnc1OC12CCCN(CC1)C2 (stereo not drawn) , the value recorded as its pIC50 is 8.17

Given item CCCCCSc1nsnc1OC1CN2CCC1CC2 (stereo in doubt; 18g) , the value recorded as its pIC50 is 8.57

Given item CCCCOc1nsnc1OC1CCN(C)C1 (stereo not drawn) , the value recorded as its pIC50 is 7.36

Given item CCCSc1nsnc1OC1CN2CCCC1C2 (stereo in doubt; 34) , the value recorded as its pIC50 is 7.48
